test system: Xenopus laevis; experiment: Anesthetic effect on prelimb-bud stage of Xenopus laevis tadpole assessed as loss of swimming reflex; assay type: functional, organism-based
// values below are reported EC50
Could you give me the number in µM? Just the number is fine.

C[C@]12CC[C@@H](O)C[C@@H]1CC[C@H]1[C@@H]3CC[C@H](C#N)[C@@]3(C)CC(=O)[C@@H]12; 5.48

# EC50 (compound: "C[C@]12CC[C@@H](O)C[C@@H]1CC[C@@H]1[C@@H]2C(=O)C[C@]2(C)C(C#N)=CC[C@@H]12" ) is 5.48

CC(=O)[C@H]1CC[C@H]2[C@@H]3CC[C@H]4C[C@H](O)CC[C@]4(C)[C@H]3C(=O)C[C@]12C [ALFAXALONE] has a reported EC50 of 5.48

---

Recorded measurements of fold change (FC), one per entry
system: Oocyte; experiment: Modulation of rat GABA-A alpha1beta2gamma2L receptor expressed in Xenopus oocytes assessed as increase of GABA-induced chloride current at 10 uM by two electrode voltage-clamp method relative to control; assay type: cell-based
Respond with the number and no other words.

Sample answers from the record:
CC(=O)[C@H]1CC[C@H]2[C@@H]3CC[C@H]4C[C@H](O)CC[C@]4(C)[C@H]3C(=O)C[C@]12C; 19.6
CC(=O)C1=CC[C@H]2[C@@H]3CC[C@H]4C[C@H](O)CC[C@]4(C)[C@H]3C(=O)C[C@]12C; 1.87
C[C@]12CC[C@@H](O)C[C@@H]1CC[C@H]1[C@@H]3CC[C@H](C#N)[C@@]3(C)CC(=O)[C@@H]12; 21.1

Let us examine a further case.
// sample "C[C@]12CC[C@@H](O)C[C@@H]1CC[C@@H]1[C@@H]2C(=O)C[C@]2(C)C(C#N)=CC[C@@H]12" , its fold change (FC) was 23.8

---

tested on: Xenopus laevis; assay: Anesthetic effect on prelimb-bud stage of Xenopus laevis tadpole assessed as loss of righting reflex; assay type: functional, organism-based
observable: pEC50
Please report pEC50 as the negative decimal logarithm of the molar concentration, giving only the number.

Known pEC50 results, listed for orientation:
C[C@]12CC[C@@H](O)C[C@@H]1CC[C@@H]1[C@@H]2C(=O)C[C@]2(C)C(C#N)=CC[C@@H]12; 5.98
CC(=O)[C@H]1CC[C@H]2[C@@H]3CC[C@H]4C[C@H](O)CC[C@]4(C)[C@H]3C(=O)C[C@]12C; 5.95

// switching to the query compound
GET /value?item= "C[C@]12CC[C@@H](O)C[C@@H]1CC[C@H]1[C@@H]3CC[C@H](C#N)[C@@]3(C)CC(=O)[C@@H]12" &field=pEC50 returns 6.14

---

system: Oocyte; test: Modulation of rat GABA-A alpha1beta2gamma2L receptor expressed in Xenopus oocytes assessed as increase of GABA-induced chloride current at 0.1 uM by two electrode voltage-clamp method relative to control; assay type: cell-based
observable: fold change (FC)

Lookup result for "CC(=O)C1=CC[C@H]2[C@@H]3CC[C@H]4C[C@H](O)CC[C@]4(C)[C@H]3C(=O)C[C@]12C" ; measured fold change (FC): 0.94

response.value for CC(=O)[C@H]1CC[C@H]2[C@@H]3CC[C@H]4C[C@H](O)CC[C@]4(C)[C@H]3C(=O)C[C@]12C [ALFAXALONE] (field: fold change (FC)) = 2.91

Sample "C[C@]12CC[C@@H](O)C[C@@H]1CC[C@H]1[C@@H]3CC[C@H](C#N)[C@@]3(C)CC(=O)[C@@H]12" ; fold change (FC) observed: 1.12

Record summary for "C[C@]12CC[C@@H](O)C[C@@H]1CC[C@@H]1[C@@H]2C(=O)C[C@]2(C)C(C#N)=CC[C@@H]12" : reported fold change (FC) = 1.49

Reference source: ChEMBL document CHEMBL1799976
